Experiment: Mouse oral bioavailability
Format: in vivo
Conditions: whole blood (dried blood spot), male mice, IV bolus 1 mg/kg vs oral 3 mg/kg, 8-hour AUC, read-out: % F (mouse)
Protocol: Oral bioavailability (% F) for compounds of the invention may be determined in mice by determination of an 8-hour blood plasma AUC (nM*hr) following intravenous and oral administration performed essentially as follows. […] Blood concentration of compounds for each mouse is measured by liquid chromatography/tandem mass spectrometry at time points of 0.08 (IV only), 0.25, 0.5, 0.75, 2, 4, and 8 hours. Oral bioavailability (% F) is determined via the following equation: [% F=(AUC/Dose)PO/(AUC/Dose)IV].
Observable: bioavailability (%)

Use these answered entries as a reference point.
Smiles Structure | Unit Symbol | Data Value
COC[C@H](c1cnn2cc([C@@H](NC(=O)c3nonc3C3CC3)C3CCC(F)(F)CC3)nc2c1)N1C[C@@H](C(F)(F)F)NC1=O | % | 37
O=C(N[C@H](c1cn2ncc(CN3C[C@@H](C(F)(F)F)NC3=O)cc2n1)C1CCC(F)(F)CC1)c1conc1C(F)(F)F | % | 55

(P) Cc1nonc1C(=O)N[C@H](c1cn2ncc(CN3C[C@@H](C(F)(F)F)NC3=O)cc2n1)C1CCC(F)(F)CC1
(Q) CCc1nocc1C(=O)N[C@H](c1cn2ncc(CN3C[C@@H](C(F)(F)F)NC3=O)cc2n1)C1CCC(F)(F)CC1
(R) CC(F)(F)c1nocc1C(=O)N[C@H](c1cn2ncc(CN3C[C@@H](C(F)(F)F)NC3=O)cc2n1)C1CCC(F)(F)CC1
(S) O=C(N[C@H](c1cn2ncc(CN3C[C@@H](C(F)(F)F)NC3=O)cc2n1)C1CCC(F)(F)CC1)c1conc1CCF
*Q* // ranking: key=bioavailability, reverse=True Provide the ranking by listing each label in its place in the requested order.
*A* P, R, Q, S
